Origin of the recorded values: ChEMBL document CHEMBL4359894

Item-by-item account of relative binding affinity (RBA)
test-target: Estrogen receptor (Homo sapiens)
assay-method-text: Binding affinity to ERalpha (unknown origin) by competitive fluorometric receptor binding assay relative to estradiol
Would you mind answering with just the numeric figure?

>  <molecule>
CCCCCCCCOc1ccc(C2=C(c3ccc(O)cc3)[C@H]3O[C@@H]2C[C@@H]3S(=O)(=O)N(CC(F)(F)F)c2ccc(OC)cc2)cc1 (relative stereo)

>  <test-target>
Estrogen receptor (Homo sapiens)

>  <relative binding affinity (RBA)>
1.59

$$$$
>  <molecule>
CCCCCCCCCCOc1ccc(C2=C(c3ccc(O)cc3)[C@H]3C[C@H](S(=O)(=O)N(CC(F)(F)F)c4ccc(Cl)cc4)[C@@H]2O3)cc1 (relative stereo)

>  <test-target>
Estrogen receptor (Homo sapiens)

>  <relative binding affinity (RBA)>
0.25

$$$$

Q: GET relative binding affinity (RBA) | system: Estrogen receptor (Homo sapiens) | item: CCCCOc1ccc(C2=C(c3ccc(O)cc3)[C@H]3O[C@@H]2C[C@@H]3S(=O)(=O)N(CC(F)(F)F)c2ccc(OC)cc2)cc1 (relative stereo)
A: 1.81
